Reference source: PubChem BioAssay (NCI)

- System: SR leukemia
- experiment-summary: NCI-60 one-dose screen, 48 h
- run-parameters: 10 µM unless noted
The panel holds about 83,000 compounds, 20% with a hit somewhere; the sample as a whole holds those more often. Active and inactive are the calls of the source. How the source made its calls: active means growth percent below 10; inactive means the rest.
Bench note: report the call from active, inactive

Some solved cases for reference:
- molecule: "C[C@@H]1C(=O)N(C[C@H](Cc2ccccc2)N(Cc2ccccc2)Cc2ccccc2)[C@]1(Cc1ccccc1)C(=O)OC(C)(C)C"
  discrete-label: "inactive"
- molecule: "Cc1cc(C)on1"
  discrete-label: "inactive"
- molecule: "O=C1CSC(c2ccc(O)cc2)N1c1nnc(Cn2cnnc2)o1 (centres undefined)"
  discrete-label: "active"
- molecule: "CC(C)(C)c1ccc(C(=O)Nc2sc3c(c2C(N)=O)CCC(=O)C3)cc1"
  discrete-label: "inactive"
- molecule: "Nc1nc(I)c2ncn(C3OC(CO)C(O)C3O)c2n1 (centres undefined)"
  discrete-label: "inactive"

Query string: Entry Nc1nc(Nc2ccc(Cl)cc2)nn1S(=O)(=O)c1ccc(-c2ccc(F)cc2)cc1 : call = ?
Result string: inactive

Query string: Record: O=C(NCCOCCOCCNc1cccc2c1C(=O)N(C1CCCNC1=O)C2=O)c1cc2c(o1)C(=O)c1ccccc1C2=O (centres undefined)
Result string: inactive

Query string: Field entry: O=C(O)c1ccccc1C(=O)Nc1ccc(Cl)cc1
Result string: inactive

Query string: And the next one, O=C(/C=C/C12c3ccccc3C(c3ccccc31)C1C(=O)N(c3ccccc3)C(=O)C12)c1ccccc1 (centres undefined) ?
Result string: inactive

Query string: Please give the result for COc1ccc(/C=C2\C=C(c3ccccc3)N(CCc3ccccc3)C2=O)cc1OC too.
Result string: active

Query string: Also check NS(=O)(=O)c1cn(-c2ncnc3nc[nH]c23)ccc1=O
Result string: inactive

Query string: Same read-out for N#C/C=C(\c1ccc([N+](=O)[O-])cc1)n1nnc2cc(Cl)c(Cl)cc21 ?
Result string: inactive

Query string: Input Cl.Fc1c[c-]c(-c2ccccn2)c(F)c1.[Pt].c1ccc([PH+](C[PH+](c2ccccc2)c2ccccc2)c2ccccc2)cc1
Result string: active

Query string: Now give it for CCNCCNc1cc(C2CCCC2)c(C#N)c2nc3ccccc3n12 too.
Result string: active

Query string: What do you get for CC(C)CCC[C@@H](C)[C@H]1CCC2C3=CCn4c(=O)ccc(=O)n4C3CC[C@@]21C (some centres undefined) ?
Result string: active

Query string: How about Fc1ccc(Nc2ccc3cc(OCCCN4CCOCC4)ccc3n2)cc1F ?
Result string: active

Query string: Can you handle COc1ccc(OC)c(Nc2nc3nonc3nc2Nc2cc(OC)ccc2OC)c1 next?
Result string: inactive

Query string: Lookup NC(N)=N/N=C(/c1ccccc1)c1ccc(N)cc1
Result string: inactive

Query string: Now the same for NC(=S)N/N=C/C(=O)O
Result string: inactive

====

- Test system: NCI/ADR-RES ovarian
- experiment-summary: NCI-60 one-dose screen, 48 h (100 = growth as untreated, 0 = no growth, -100 = all killed)
- run-parameters: 10 µM unless noted
This is part of a sample that, as a whole, favours compounds with a hit. Of some 83,000 tested, about 20% had one in any assay.
outcome-measure: growth (%)
Lab book: enter the figure in %, no units written.

Observe how each entry below is paired with its result.
- compound: "CCNCCNc1cc(-c2ccc(Cl)cc2)c(C#N)c2nc3ccccc3n12"
  growth (%): 22.6
- compound: "O=C(Nc1ccc(N2CCCCC2)c(Cl)c1)c1ccc(Br)o1"
  growth (%): 68
- compound: "Nc1c(C(=O)c2ccc(Cl)s2)sc2nc3c(cc12)CCCC3"
  growth (%): 101
- compound: "CCOC(=O)C1=C(C)NC(SCc2nnc(-c3ccc(Cl)cc3)o2)=NC1c1ccc(Cl)cc1Cl (stereo unspecified)"
  growth (%): 54.6
- compound: "CN1CCC(=C2c3ccccc3C=Cc3ccccc32)CC1"
  growth (%): 75.6

Query string: Request - read-out growth | tested on NCI/ADR-RES ovarian | compound C[N+](C)(C)CCOC(OCC[N+](C)(C)C)(c1ccccc1)c1ccccc1
Result string: 97.9

Query string: Do the same for Cc1cc(C)on1 please
Result string: 109

Query string: Next up: C=C(C=O)[C@@H]1CC=C(C=O)CC1
Result string: 3.97

Query string: // repeat for CCCCCCCCCCCCCCCCCC1=NCCN1C(=O)OCCO and report
Result string: 51.4

Query string: Same question, COc1ccccc1C(=O)NC(=S)Nc1ccc(-c2nc3ccccc3[nH]2)cc1 this time
Result string: 38.7

Query string: What do we get for NS(=O)(=O)Oc1ccc(NC(=O)C23CC4CC(CC(C4)C2)C3)cc1Cl ?
Result string: 93.6
